# target-system: Nuclear receptor ROR-gamma (Homo sapiens, UniProt P51449)
# Sequence (P51449 whole entry): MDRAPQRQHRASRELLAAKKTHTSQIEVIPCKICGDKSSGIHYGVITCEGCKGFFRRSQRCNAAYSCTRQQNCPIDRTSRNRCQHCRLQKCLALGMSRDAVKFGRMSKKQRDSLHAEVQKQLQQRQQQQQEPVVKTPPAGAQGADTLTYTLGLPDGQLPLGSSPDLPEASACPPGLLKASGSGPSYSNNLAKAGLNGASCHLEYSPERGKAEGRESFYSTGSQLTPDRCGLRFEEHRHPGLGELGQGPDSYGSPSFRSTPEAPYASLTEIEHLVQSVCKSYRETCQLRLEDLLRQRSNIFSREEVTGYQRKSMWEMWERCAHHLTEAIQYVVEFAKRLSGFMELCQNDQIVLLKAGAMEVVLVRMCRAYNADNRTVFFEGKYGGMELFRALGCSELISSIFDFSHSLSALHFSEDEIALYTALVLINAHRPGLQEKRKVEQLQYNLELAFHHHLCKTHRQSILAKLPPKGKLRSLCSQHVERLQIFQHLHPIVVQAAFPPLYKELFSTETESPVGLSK
measurement-type: IC50 (µM)
The response must be a number in µM with no trailing unit.

Ask: Please list IC50 recorded for the compound O=C(Nc1ccc2c(c1)N(S(=O)(=O)c1ccccc1)CCC2)c1c(F)cccc1F
Result: 0.18
